Molecular target: CDK9/Cyclin T1 complex (Homo sapiens, UniProt P50750)
Sequence (P50750 whole entry, species assumed): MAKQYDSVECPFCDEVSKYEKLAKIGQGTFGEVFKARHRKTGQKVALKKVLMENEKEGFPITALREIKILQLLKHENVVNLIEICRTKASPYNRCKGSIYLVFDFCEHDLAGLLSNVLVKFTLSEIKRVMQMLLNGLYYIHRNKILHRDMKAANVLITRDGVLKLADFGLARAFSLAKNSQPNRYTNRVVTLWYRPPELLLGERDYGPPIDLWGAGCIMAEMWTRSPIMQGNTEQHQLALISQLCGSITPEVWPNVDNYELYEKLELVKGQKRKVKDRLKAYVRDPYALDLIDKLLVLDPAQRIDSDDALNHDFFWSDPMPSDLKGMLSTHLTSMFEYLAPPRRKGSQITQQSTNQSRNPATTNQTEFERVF
Sequence (O60563 whole entry partner, species assumed): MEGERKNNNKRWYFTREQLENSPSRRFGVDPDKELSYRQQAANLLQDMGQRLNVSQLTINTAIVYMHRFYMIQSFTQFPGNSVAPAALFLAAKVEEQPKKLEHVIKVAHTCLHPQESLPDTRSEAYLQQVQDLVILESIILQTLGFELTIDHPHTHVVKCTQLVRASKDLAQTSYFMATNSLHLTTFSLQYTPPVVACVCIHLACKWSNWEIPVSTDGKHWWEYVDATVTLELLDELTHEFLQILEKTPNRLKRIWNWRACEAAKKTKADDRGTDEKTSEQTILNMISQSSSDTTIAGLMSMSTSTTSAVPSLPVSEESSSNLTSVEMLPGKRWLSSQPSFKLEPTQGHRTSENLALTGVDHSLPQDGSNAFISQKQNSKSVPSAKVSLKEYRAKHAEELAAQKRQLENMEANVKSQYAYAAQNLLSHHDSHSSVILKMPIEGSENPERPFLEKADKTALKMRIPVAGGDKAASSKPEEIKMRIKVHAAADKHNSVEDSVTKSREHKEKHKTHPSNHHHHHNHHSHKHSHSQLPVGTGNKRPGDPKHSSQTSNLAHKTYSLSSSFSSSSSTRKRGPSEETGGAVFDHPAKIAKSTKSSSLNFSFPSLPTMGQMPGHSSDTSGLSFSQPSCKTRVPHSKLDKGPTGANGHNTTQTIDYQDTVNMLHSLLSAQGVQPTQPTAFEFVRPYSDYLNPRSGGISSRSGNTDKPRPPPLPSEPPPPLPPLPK
Assay: CDK9 inhibition assay (Caliper/LabChip EZ Reader kinase assay)
Format: biochemical
Settings: Table 1; CDK9/Cyclin T1 8 nM, ATP 2 mM, 15 min at 27° C.
Assay Metric: IC50

INSERT INTO measurements (molecule, measured_value) VALUES
  ('FC(F)(F)c1cnc(N[C@H]2CCC3(CCCCC3)NC2)nc1-c1c[nH]c2ccccc12 [Compound 240]', '0.2 to 5 µM'),
  ('Clc1cnc(N[C@H]2CN3CCC2CC3)nc1-c1c[nH]c2ccccc12 [Compound 134]', '> 5 µM'),
  ('O[C@H]1CNC[C@@H](Nc2ncc(C(F)(F)F)c(-c3c[nH]c4ccccc34)n2)C1 [Compound 203]', '0.2 to 5 µM'),
  ('Cn1cc(-c2cccc3c(-c4nc(N[C@H]5CCCNC5)ncc4C(F)(F)F)c[nH]c23)cn1 [Compound 164]', '0.2 to 5 µM'),
  ('CCP(=O)(CC)c1ccc2c(-c3nc(N[C@H]4CCCNC4)ncc3C(F)(F)F)c[nH]c2c1 [Compound 379]', '> 5 µM'),
  ('Fc1cc2[nH]cc(-c3nc(N[C@H]4CCCNC4)ncc3Cl)c2cc1F [Compound 111]', '0.02 to 0.2 µM'),
  ('FC(F)(F)c1cnc(N[C@H]2CCCNC2)nc1-c1c[nH]c2c(-c3ccncc3)cccc12 [Compound 162]', '0.2 to 5 µM'),
  ('CC1(C)CCNC[C@@H]1Nc1ncc(C(F)(F)F)c(-c2c[nH]c3ccccc23)n1 (single isomer, unassigned) [Compound 209]', '> 5 µM'),
  ('C=CC(=O)N1CCC(CO[C@H]2CNC[C@@H](Nc3ncc(C(F)(F)F)c(-c4c[nH]c5c(S(C)(=O)=O)cccc45)n3)C2)CC1 [Compound 264]', '> 5 µM'),
  ('FC(F)(F)c1cnc(N[C@H]2CCCNC2)nc1-c1c[nH]c2c(Br)cccc12 [Compound 163]', '0.2 to 5 µM'),
  ('CCS(=O)(=O)c1ccc2c(-c3nc(N[C@H]4CCCNC4)ncc3C(F)(F)F)c[nH]c2c1 [Compound 274]', '0.2 to 5 µM'),
  ('COCn1cc(-c2nc(NC3CCCNC3)ncc2C(F)(F)F)c2ccc(C#N)nc21 (stereo not drawn) [Compound 283]', '> 5 µM'),
  ('CS(=O)(=O)Cc1ccc2c(-c3nc(N[C@H]4CCCNC4)ncc3C(F)(F)F)c[nH]c2c1 [Compound 219]', '0.2 to 5 µM'),
  ('CC1(C)CNC[C@@H](Nc2ncc(Cl)c(-c3c[nH]c4c(S(C)(=O)=O)c(C#N)ccc34)n2)C1 [Compound 382]', '0.2 to 5 µM'),
  ('N#Cc1ccc2c(-c3nc(N[C@@H]4CNCC[C@H]4O)ncc3C(F)(F)F)c[nH]c2c1 [Compound 355]', '> 5 µM');
